# Test system: 786-0 renal
# ASSAY_INFO: NCI tumour cell line growth inhibition, 48 h
ENDPOINT_LABEL: GI50

Please review the following examples before continuing.
INSERT INTO results (compound, test_system, endpoint_label, result) VALUES
  ('Cc1cc(NS(=O)(=O)c2ccc(NC(=O)COc3ccc(-c4cc5ccccc5[nH]4)cc3)cc2)no1', '786-0 renal', 'GI50', '1930 nM'),
  ('COc1ccc(Oc2nc(Nc3ccc(N4CCOCC4)cc3)ncc2NC(=O)Nc2cc(OC)cc(OC)c2)cc1', '786-0 renal', 'GI50', '1310 nM'),
  ('Cc1ccc(-c2c3c(N)nc(-c4ccncc4)nc3nc3c2c(C)nn3-c2ccccc2)cc1', '786-0 renal', 'GI50', '12400 nM'),
  ('Cc1ccc(C2NC(=S)N3C(c4ccc(C)cc4)NC(=S)N23)cc1 (stereo not given)', '786-0 renal', 'GI50', '5820 nM'),
  ('CCCCCCCCn1ccc2cc(NC(=O)Cn3cc(CN4CCC(C)CC4)nn3)ccc21', '786-0 renal', 'GI50', '1480 nM');

## Input Answer with the recorded GI50 for the compound listed here: O=c1c(-c2ccc3c(c2)OCO3)coc2c(CO)c(O)ccc12
## Output 1970 nM

## Input Give a short answer stating reported GI50 for Cc1ccn2c(-c3csc(Nc4cccc(O)c4)n3)c(C)nc2c1 .
## Output 1800 nM

## Input Specify measured GI50 for COc1cc2c(cc1OCc1ccccc1)N=C[C@@H]1C[C@@H](F)CN1C2=O .
## Output 189 nM

## Input Let me know recorded GI50 for O=C1c2cccc3cccc(c23)C(=O)N1CC#Cc1ccc2c3c(cccc13)C(=O)N(CCN1CCNCC1)C2=O , thanks.
## Output 1860 nM

## Input Tell me its GI50 given Oc1[nH]c2ccc(Cl)cc2c1/C=c1/ccc2c(c1)N=C(c1ccc(C(F)(F)F)cc1)N=2 as the entry.
## Output 1750 nM

## Input Output measured GI50 for this item: COc1ccc(C2=NNC(c3cc(Cc4ccc(O)c(C5CC(c6ccc(OC)cc6)=NN5)c4)ccc3O)C2)cc1 (stereo not given)
## Output 8390 nM
